tested.target: T1, human DLL3 antigen (human, UniProt Q9NYJ7 27-492, limits assumed)
T1 construct: also called immobilized human DLL3; recombinant human DLL3
T1 sequence (looked up): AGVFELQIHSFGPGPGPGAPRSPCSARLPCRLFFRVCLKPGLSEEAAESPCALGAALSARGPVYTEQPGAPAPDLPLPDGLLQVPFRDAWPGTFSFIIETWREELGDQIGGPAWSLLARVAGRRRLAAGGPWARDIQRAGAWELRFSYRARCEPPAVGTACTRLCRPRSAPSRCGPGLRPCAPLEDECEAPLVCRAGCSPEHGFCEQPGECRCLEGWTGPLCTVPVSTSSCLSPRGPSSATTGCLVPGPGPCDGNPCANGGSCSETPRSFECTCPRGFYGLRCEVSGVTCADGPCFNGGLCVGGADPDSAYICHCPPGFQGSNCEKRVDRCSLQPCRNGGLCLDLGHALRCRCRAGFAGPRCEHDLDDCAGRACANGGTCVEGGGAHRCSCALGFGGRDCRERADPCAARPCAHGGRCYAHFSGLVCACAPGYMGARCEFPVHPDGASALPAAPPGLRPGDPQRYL
assay.name: ELISA or flow cytometry screen
assay.endpoint: binding result

binder | binding result
SC16.125 (antibody, V domains shown, murine mAb) VH: DVQLQESGPDLVKPSQSLSLTCTVTGYSITSGYSWHWIRQFPGNKLEWMGYIHYSGSTNYNPSLKSRISITRDTSKNQFFLQFKSVTTEDSATYYCALEGNYDGFAYWGQGTLVTVS VL: DIQMNQSPSSLSASLGDTITITCHASQNINVWLSWYQQKPGNIPKLLIYKASILHTGVPSRFSGSGSGTGFTLTISSLQPEDIATYSCQQGQSYPYTFGGGTKLEIK | binds
SC16.47 (antibody, V domains shown, murine mAb) VH: EVQLQQSGPELVKPGASVKISCKASGYSFSRFYMHWVKQSPENSLEWIGEINPSTGGTSYNQKFKGKATLTVDKSSSTAYMQLKSLTSEESAVYYCTRGYGSNCYFDVWGAGTTVTVST VL: DVVLTQSPLSLPVNIGDQASISCKSTKSLLNSDGFTYLDWYLQRPGQSPQFLIYLVSNRFSGVPDRFSGSGSGTDFTLKISRVEAEDLGVYYCFQSNYLPLTFGAGTKLELR | binds
SC16.8 (antibody, V domains shown, murine mAb) VH: QAQLQQSGAELVRPGTSVKVSCKASGYAFTNYLIEWVKQRPGQGLEWIGVINPGTGGTNYNENFKGKATLTADKSSSTAYMQLSSLTSDDSAVYFCARSPYDYHEGAMDYWGQGTSVTVSS VL: EIQMTQSPSSMSASLGDRITITCQATQDIVKNLNWYQQKPGKPPSFLIYYAIELAEGVPSRFSGSGSGSDYSLTISNLESEDFADYYCLQFYEFPFTFGAGTKLELK | binds
SC16.143 (antibody, V domains shown, murine mAb) VH: QVQLQQSGPELVKPGASVRISCKASGYTFTSYYIHWVKQRPGQGLEWIGWIYPGNGNTKYNEKFKGKATLTADKSSSTAYMQISSLTSEDSAVYFCARERWLLLWFAYWGQGTLVTVSA VL: DVLMTQTPLSLPVSLGDQASISCRSSQSIVHSNGNTYLEWYLQKPGQSPKLLIYKVSNRFSGVPDRFSGSGSGTDFTLKISRVEAEDLGVYYCFQGSHVPLTFGAGTKLELK | binds
SC16.118 (antibody, V domains shown, murine mAb) VH: EVQLQQSGPDLVKPGASVKISCKASGYSFTGYYMHWVKQSHGKSLEWIGRVNPNNGGTSYNQKFKGKAILTADKSSSTAYMELRSLTSEDSAVYYCARGSYDYAEGWGQGTLVTVSA VL: DIVLTQSPASLAVSLGQRATISCKASQSVDYDGDSYLTWYQQKPGQPPKLLIYAASNLESGIPARFSGSGSGTDFTLNIHPVEEEDAATYYCQQSNEDPYTFGGGTKLEIKR | binds

SC16.141 (antibody, V domains shown, murine mAb) VH: QVQLKQSGPGLVAPSQSLFITCTVSGFSLTSYEINWVRQPPGKGLEWLGVIWTGGSTNYNSALISRLSISKDNSKSLVFLKMNSLQTDDTAIYYCVRGVYAMDYWGQGTSVTVSS VL: DIKMTQSPSSMYASLGERVTITCKASQDINSYLSWFQQKPGKSPKTLIYRANRLVDGVPSRFSGSGSGQDYSLTISSLEYEDMGIYYCLQYDEFPFTFGSGTKLEIK yielded binding result of binds

SC16.123 (antibody, V domains shown, murine mAb) VH: QVALKESGPGILQPSQTLSLTCSFSGFSLSTSGMGVGWIRQPSGKGLEWLAHIWWDDVKRYNPALKSRLTISKDTSSSQVFLKIASVDTADTATYYCARMEDYGSSSYFDFWGHGTTLTVSS VL: QIVLTQSPAIMSASLGERVTMTCTASSSVSSSYLHWYQQKPGSSPKLWIYSTSNLASGVPARFSGSGSGTSYSLTISSMETEDAATYYCHQYHRSPFTFGSGTKLEIK yielded binding result of binds

SC16.57 (antibody, V domains shown, murine mAb) VH: EVKLVESGGDLVKPGGSLKLSCAASGFAFSSYDMSWVRQTPEKRLEWVATISSGGSYTYYPDSVKGRFTISRDNVRDTLYLQMSSLRSEDTALYYCARQAIGTYFDYWGQGTTLTVSS VL: DIVMTQSHKFMSISVGDRVSITCKASQDVSIFVAWYQQKPGQSPKLLIYSASYRYTGVPDRFTGSGSGTDFIFTISSVQAEDLAVYYCQQHYGTPFTFGSGTKLKIR yielded binding result of binds

SC16.18 (antibody, V domains shown, murine mAb) VH: EVKLEESGGGLVQPGESMKLSCAASGFTFSDAWMDWVRQSPEKGLEWVAEIRNKANNHATYYAESVKGKFTISRDDSKSRVYLQMNNLRAADTGIYYCTAYSNFAYWGQGTLVTVST VL: DIQMTQTTSSLSASLGDRVTISCRASQNIINYLNWYQQKPDGTVKLLIYYTSRLHSGVPSRFSGSGSGTDYSLTISNLEPEDIATYYCQQYSERPYTFGGGTKLEIKR yielded binding result of binds

SC16.79 (antibody, V domains shown, murine mAb) VH: EVQLQQSGPELVKPGASVKISCKTSGYTFTEYTMHWVKQSHGKSLEWIGGINPNNGGTSYNQKFKGKATLTVDKSSSTAYMELRSLTSEDSAVYYCARGPAWFAYWGQGTLVTVSA VL: DIVMSQSPSSLAVSAGEKVTMSCKSSQSLLNSRTRKNYLAWYQQKPGQSPKLLIYWASTRESGVPDRFTGSGSGTDFTLTISSVQAEDLAVYYCKQSYNLYTFGGGTKLKIKR yielded binding result of binds
